Assay: DSSTox (CPDBAS) Carcinogenic Potency Database Summary MultiCellCall Results
Conditions: animal carcinogenicity bioassays, multi-cell call summary
The source made the active and inactive calls.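 The calls were made as follows: active = tumour findings in long-term animal cancer tests in more than one sex, species or organ; inactive = no tumour finding and more than one negative test.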
Hi there, use one of these labels in your reply, thanks! true for active, false for inactive

## Task Would you mind telling me which call this test gave Clc1ccc2c(c1)C(c1ccccc1)=NCc1nncn1-2 ?
## Result false

## Task And then CN(C)c1ccc(C(=N)c2ccc(N(C)C)cc2)cc1 , what is it?
## Result true

## Task And then CCN(CC)C(=O)Nc1ccc(OCC(O)CNC(C)(C)C)c(C(C)=O)c1 (centres undefined) , what is it?
## Result false

## Task And then C[C@H]([C@H](O)CCC(C)(C)O)[C@H]1CC[C@@]2(O)C3=CC(=O)[C@@H]4C[C@@H](O)[C@@H](O)C[C@]4(C)[C@H]3CC[C@]12C , what is it?
## Result true

## Task And then COC(=O)C1=C(C)NC(C)=C(C(=O)OCCc2ccc(N3CCN(C(c4ccccc4)c4ccccc4)CC3)cc2)C1c1cccc([N+](=O)[O-])c1 (centres undefined) , what is it?
## Result false

## Task And then c1ccc2sc(SN3CCOCC3)nc2c1 , what is it?
## Result false

## Task And then CCCCC1C(=O)N(c2ccccc2)N(c2ccccc2)C1=O , what is it?
## Result true

## Task And then Cc1ccc(OP(=O)(Oc2ccc(C)cc2)Oc2ccc(C)cc2)cc1 , what is it?
## Result false

## Task And then CCCN(N=O)C(N)=O , what is it?
## Result true

## Task And then C[C@]12C=CC(=O)C=C1CC[C@@H]1[C@@H]2C(=O)C[C@@]2(C)[C@H]1CC[C@]2(O)C(=O)CO , what is it?
## Result false

## Task And then O=C1c2cccc(O)c2C(=O)c2c(O)cccc21 , what is it?
## Result true

## Task And then C=CCc1ccc2c(c1)OCO2 , what is it?
## Result true

## Task And then CNCCC(Oc1ccc(C(F)(F)F)cc1)c1ccccc1 (centres undefined) , what is it?
## Result false

## Task And then Cc1ccc(/C(=C\CN2CCCC2)c2ccccn2)cc1 , what is it?
## Result false

## Task And then O=C1CCCCCN1 , what is it?
## Result false

## Task And then CN(C)[C@@H]1C(=O)C(C(N)=O)=C(O)[C@@]2(O)C(=O)C3=C(O)c4c(O)cccc4[C@@](C)(O)[C@H]3C[C@@H]12 , what is it?
## Result false

## Task And then Cc1ncc[nH]1 , what is it?
## Result true

## Task And then O=[N+]([O-])c1ccc2c(c1)Cc1ccccc1-2 , what is it?
## Result true

## Task And then CCCCCCCCCC[N+](C)(C)[O-] , what is it?
## Result false

## Task And then N , what is it?
## Result false

## Task And then CN=[N+](C)[O-] , what is it?
## Result true

## Task And then O=[N+]([O-])c1ccc(-c2nc(N(CCO)CCO)c3ccccc3n2)s1 , what is it?
## Result true

## Task And then COc1c(Cl)c(Cl)c([N+](=O)[O-])c(Cl)c1Cl , what is it?
## Result false

## Task And then Nc1ccc(N)c2c1C(=O)c1c(N)ccc(N)c1C2=O , what is it?
## Result true

====

Experiment: DSSTox (CPDBAS) Carcinogenic Potency Database Summary MultiCellCall Results
Conditions: animal carcinogenicity bioassays, multi-cell call summary
Active and inactive are the calls of the source.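 The calls were made as follows: active = tumour findings in long-term animal cancer tests in more than one sex, species or organ; inactive = no tumour finding and more than one negative test.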
Hi there, use one of these labels in your reply, thanks! true (1) for active, false (0) for inactive

## Task Would you mind telling me which call this test gave O=NN(CC(=O)O)CC(=O)O ?
## Result false (0)

## Task And then ClC(Cl)=C(Cl)c1c(Cl)c(Cl)c(Cl)c(Cl)c1Cl , what is it?
## Result false (0)

## Task And then CC(=O)Nc1ccc(C(=O)CCl)cc1 , what is it?
## Result false (0)

## Task And then Cc1ccc(C)c(N)c1 , what is it?
## Result true (1)

## Task And then c1ccc2n[nH]nc2c1 , what is it?
## Result false (0)

## Task And then CCCCN(CC)C(=O)SCCC , what is it?
## Result false (0)

## Task And then O=NN1CCCCCC1 , what is it?
## Result true (1)

## Task And then CCC1CO1 (stereo not given) , what is it?
## Result true (1)

## Task And then O=C1CN=C(c2ccccc2)c2cc(Cl)ccc2N1CC1CC1 , what is it?
## Result false (0)

## Task And then C=CF , what is it?
## Result true (1)

## Task And then CCCCCCN(N=O)C(N)=O , what is it?
## Result true (1)

## Task And then C=C(C)[C@H]1CC=C(C)C(=O)C1 , what is it?
## Result false (0)

## Task And then O=[N+]([O-])c1cccc2cccnc12 , what is it?
## Result true (1)

## Task And then COP(=S)(OC)Oc1ccc([N+](=O)[O-])cc1 , what is it?
## Result false (0)

## Task And then CCN(CC)CCCNC(=O)Cn1ncc(-c2ccccc2)c1-c1ccccc1 , what is it?
## Result false (0)

====

Assay: DSSTox (CPDBAS) Carcinogenic Potency Database Summary MultiCellCall Results
Details: animal carcinogenicity bioassays, multi-cell call summary
Calls of active or inactive are those of the source.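 The calls were made as follows: active = tumour findings in long-term animal cancer tests in more than one sex, species or organ; inactive = no tumour finding and more than one negative test.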
Hi there, use one of these labels in your reply, thanks! active, inactive

## Task Would you mind telling me which call this test gave O=C1c2ccccc2C(=O)N1SC(Cl)(Cl)Cl ?
## Result active

## Task And then O=C1O[C@H]([C@@H](O)CO)C(O)=C1O , what is it?
## Result inactive

## Task And then CCC(Cl)CCC(Cl)C(Cl)CC(Cl)C(Cl)C(Cl)CCl (centres undefined) , what is it?
## Result active

## Task And then O=CNNc1nc(-c2ccc([N+](=O)[O-])o2)cs1 , what is it?
## Result active

## Task And then NC(N)=Nc1nc(CSCCNc2nsnc2N)cs1 , what is it?
## Result active

## Task And then ClC(Cl)C(Cl)(Cl)Cl , what is it?
## Result active

## Task And then C/C=C/c1ccc(OC)cc1 , what is it?
## Result inactive

## Task And then O=NN(CCCC(F)(F)F)CCCC(F)(F)F , what is it?
## Result active

## Task And then COc1ccc(N)c(C)c1 , what is it?
## Result active

## Task And then O=[As](O)(O)O , what is it?
## Result inactive

## Task And then ClC(Cl)(Cl)c1ccccc1 , what is it?
## Result active

## Task And then Nc1ccc([N+](=O)[O-])cc1 , what is it?
## Result inactive

## Task And then CCNN , what is it?
## Result active

## Task And then C[C@]12C/C(=C/O)C(=O)C[C@@H]1CC[C@@H]1[C@@H]2CC[C@@]2(C)[C@H]1CC[C@]2(C)O , what is it?
## Result active

====

Test: DSSTox (CPDBAS) Carcinogenic Potency Database Summary MultiCellCall Results
Settings: animal carcinogenicity bioassays, multi-cell call summary
The source made the active and inactive calls.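 How the source made its calls: active means tumour findings in long-term animal cancer tests in more than one sex, species or organ; inactive means no tumour finding and more than one negative test.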
Hi there, use one of these labels in your reply, thanks! 1 = active, 0 = inactive

## Task Would you mind telling me which call this test gave BrC(Br)Br ?
## Result 1

## Task And then Cc1ccc(O)c(O)c1 , what is it?
## Result 1

## Task And then COc1ccccc1[N+](=O)[O-] , what is it?
## Result 1

## Task And then CC(C)O , what is it?
## Result 0

## Task And then Nc1ccc(Nc2ccccc2)cc1 , what is it?
## Result 0

## Task And then CCCCCCCCCCC(C)c1ccc(S(=O)(=O)O)cc1 (stereo not drawn) , what is it?
## Result 0

## Task And then Oc1ccc2c(c1)OCO2 , what is it?
## Result 1

## Task And then Cc1nc(N)cc2[nH]c3ccccc3c12 , what is it?
## Result 1

## Task And then O=[N+]([O-])c1ccc(Oc2ccc(Cl)cc2Cl)cc1 , what is it?
## Result 1

## Task And then CC(C)(C)NC[C@H](O)COc1cccc2c1CCCC2=O , what is it?
## Result 0

## Task And then CC(C)C=O , what is it?
## Result 0

## Task And then CC(O)CN(CC(C)O)N=O (stereo not drawn) , what is it?
## Result 1

## Task And then CCCCNNCCCC , what is it?
## Result 1

## Task And then BrCCBr , what is it?
## Result 1

## Task And then CCCCC/C=N/N(C)C=O , what is it?
## Result 1

## Task And then C=CCOc1ccc(CC(=O)O)cc1Cl , what is it?
## Result 0

## Task And then Oc1c(Cl)cc(Cl)cc1Sc1cc(Cl)cc(Cl)c1O , what is it?
## Result 0

## Task And then CN(C)Nc1nc(-c2ccc([N+](=O)[O-])o2)cs1 , what is it?
## Result 1

## Task And then Nc1c(Cl)cc([N+](=O)[O-])cc1Cl , what is it?
## Result 0

## Task And then CC1CC(C)(C)CC(OOC(C)(C)C)(OOC(C)(C)C)C1 (stereo not drawn) , what is it?
## Result 0

## Task And then C=CCO , what is it?
## Result 0

## Task And then CNc1ncnc2nc[nH]c12 , what is it?
## Result 0

## Task And then CN(C)C(=O)Cl , what is it?
## Result 1

## Task And then Nc1nc(-c2ccc([N+](=O)[O-])o2)cs1 , what is it?
## Result 1

## Task And then O=C/C=C/O , what is it?
## Result 1

## Task And then Nc1nnc(-c2ccc([N+](=O)[O-])o2)s1 , what is it?
## Result 1

## Task And then CC(C)(C)c1cc(CO)cc(C(C)(C)C)c1O , what is it?
## Result 0

## Task And then CN(C)N=O , what is it?
## Result 1

## Task And then CN(C)CCN(Cc1cccs1)c1ccccc1 , what is it?
## Result 0

## Task And then CC(N)=S , what is it?
## Result 1

## Task And then CC(COc1ccccc1)N(CCCl)Cc1ccccc1 (stereo not drawn) , what is it?
## Result 1

## Task And then COc1ccc(O)c(C(C)(C)C)c1 , what is it?
## Result 1

## Task And then CC(=O)NNC(C)=O , what is it?
## Result 0

From: PubChem BioAssay AID1205
